Catalogue of melting point readings, one per entry.
Structures can show the parent of a compound that is named as a salt.

Consider the reported melting point for these compounds:
{"compound": "CCOC(=O)/C(C#N)=N/OC(N1CCOCC1)=[N+]1CCCC1 (as salt: phosphate) [HMPyOCC]", "measurement type": "melting point", "val": "171 to 172 °C"}
{"compound": "CN(C)C(ON=C(C#N)C#N)=[N+]1CCCC1 (as salt: phosphate) [HDmPyODC]", "measurement type": "melting point", "val": "146 to 147 °C (dec.)"}
{"compound": "CCOC(=O)C(C#N)=NOC(N(C)C)=[N+]1CCCC1 (as salt: phosphate) [HDmPyOCC]", "measurement type": "melting point", "val": "126 to 127 °C (dec.)"}
{"compound": "O=c1ccccn1OC(N1CCOCC1)=[N+]1CCCC1 (as salt: phosphate)", "measurement type": "melting point", "val": "145 to 146 °C (dec.)"}
{"compound": "CN(C)C(n1n[n+]([O-])c2ccc(Cl)cc21)=[N+]1CCCC1 (as salt: phosphate)", "measurement type": "melting point", "val": "192 to 193 °C"}
{"compound": "CCOC(=O)/C(C#N)=N/OC(N(C)C)N(C)C (as salt: phosphate) [HTOCC]", "measurement type": "melting point", "val": "135 to 137 °C (dec.)"}

Challenge: Item C[N+](C)=C(ON=C(C#N)C#N)N1CCOCC1 (as salt: phosphate) [HDMODC] has what recorded melting point?
Response given: 118 to 119 °C

Challenge: # lookup: melting point of CN(C)C(O/N=C(\C#N)c1ccccn1)=[N+](C)C (as salt: phosphate)
Response given: 169 to 171 °C

Challenge: Can you look up the measured melting point of [O-][n+]1nn(C(N2CCCC2)N2CCOCC2)c2cccnc21 (stereo not drawn) (as salt: phosphate) [HMPyA] for me?
Response given: 206 to 208 °C (dec.)
